# credit: PubChem BioAssay (NCI)

Test system: HOP-92 NSCLC
Assay: NCI-60 one-dose screen, 48 h
Settings: 10 µM unless noted
Method: Growth inhibition of the HOP-92 human Non-Small Cell Lung tumor cell line is measured as a screen for anti-cancer activity. Cells are grown in 96 well plates and exposed to the test compound for 48 hours. Compounds are tested at a single concentration, which is 10^-5 M for most compounds. The reported endpoint is percent growth (GI% or GIPRCNT), where numbers from 0 - 100% represent growth inhibition, and numbers from -100% - 0 represent cell death. […]
The panel holds about 83,000 compounds, 20% with a hit somewhere; the sample as a whole holds those more often. The source made the active and inactive calls. Rule for the calls: active = growth percent below 10; inactive = the rest.
Answer with one of the outcomes given here: 1 for active, -1 for inactive

Examples from the recorded data:
>>> assigned_label("CNC(=O)c1cccc(NC(=O)c2ccc3c(c2)nnn3/C(C#N)=C/c2ccccn2)c1")
1
>>> assigned_label("CN(C)CCOc1ccc(C(=O)C2[C@H](c3ccc(Cl)cc3)[C@@H](c3ccccc3)NC23C(=O)Nc2ccccc23)cc1 (stereo not given in full)")
-1
>>> assigned_label("COC(OC)C1=C(C)OC(N)=C(C#N)C12C(=O)Nc1ccccc12 (stereo not given)")
-1

Request: In this assay, the call recorded for O=C(Nc1cccc(-n2cnc3cc(-c4ccc(O)cc4)ccc32)c1)C1CC1 was what?
Response: -1

Request: In this assay, the call recorded for O=C(/C=C/c1cccc(OCc2ccc(F)cc2)c1)c1nc2ccccc2[nH]1 was what?
Response: -1

Request: In this assay, the call recorded for O=C(NNc1nc2cc(C(F)(F)F)ccc2n2cccc12)c1cnccn1 was what?
Response: 1

Request: In this assay, the call recorded for O=C(/C=C/c1ccc(-c2ccccc2)cc1)c1nc2ccccc2n1Cc1ccc(F)cc1 was what?
Response: -1

Request: In this assay, the call recorded for CCCCCCCCc1ccc(C(=O)Nc2ccc(C)cc2C(=O)O)cc1C was what?
Response: -1

Request: In this assay, the call recorded for C#CCOc1ccc(/C=N/Nc2nc(-c3ccc(F)cc3)cs2)cc1OC was what?
Response: -1

Request: In this assay, the call recorded for C#CCOc1ccc(/C=N/Nc2nc(-c3ccc(Cl)cc3)cs2)cc1OC was what?
Response: -1
